These entries and their values trace back to patent US20250051344A1.

- MEASURED_ON: SMARCA2 (Homo sapiens)
- Construct: endogenous in cells
- ASSAY_DETAILS: SMARCA2 Cellular Degradation Assay (Western blot analysis on Jess platform)
- Format: cell-based
- RECORDED_CONDITIONS: cellular degradation
VALUE_TYPE: Dmax (%)
Express the result in % but write the number alone.

Examples with answers:
INSERT INTO measurements (compound, measured_on, value_type, reported) VALUES
  ('CC1(CCN2CC3(C2)CN(C(=O)C2(c4ccccc4)CCN(c4cnnc(-c5ccccc5O)c4)CC2)C3)CCN(c2ccc(C3CCC(=O)NC3=O)cc2)CC1 (racemic)', 'SMARCA2 (Homo sapiens)', 'Dmax', 71.3),
  ('CC(C)c1cc(C2(C(=O)N3CC4(CN(CCC5CCN(c6ccc(C7CCC(=O)NC7=O)cc6)CC5)C4)C3)CCN(c3cnnc(-c4ccccc4O)c3)CC2)no1 (racemic)', 'SMARCA2 (Homo sapiens)', 'Dmax', 70.7);

// next entry
Task: # input compound: CC1(NC(=O)C2(c3ccccc3)CCN(c3cnnc(-c4ccccc4O)c3)CC2)CCN(C(=O)CN2CCC(c3ccc(N[C@@H]4CCC(=O)NC4=O)cc3)CC2)CC1 (racemic) ; wanted: its Dmax
Output: 70.5

----------
- MEASURED_ON: SMARCA2 (Homo sapiens, UniProt P51531)
- Construct: endogenous in cells
- Sequence (P51531 whole entry, species assumed): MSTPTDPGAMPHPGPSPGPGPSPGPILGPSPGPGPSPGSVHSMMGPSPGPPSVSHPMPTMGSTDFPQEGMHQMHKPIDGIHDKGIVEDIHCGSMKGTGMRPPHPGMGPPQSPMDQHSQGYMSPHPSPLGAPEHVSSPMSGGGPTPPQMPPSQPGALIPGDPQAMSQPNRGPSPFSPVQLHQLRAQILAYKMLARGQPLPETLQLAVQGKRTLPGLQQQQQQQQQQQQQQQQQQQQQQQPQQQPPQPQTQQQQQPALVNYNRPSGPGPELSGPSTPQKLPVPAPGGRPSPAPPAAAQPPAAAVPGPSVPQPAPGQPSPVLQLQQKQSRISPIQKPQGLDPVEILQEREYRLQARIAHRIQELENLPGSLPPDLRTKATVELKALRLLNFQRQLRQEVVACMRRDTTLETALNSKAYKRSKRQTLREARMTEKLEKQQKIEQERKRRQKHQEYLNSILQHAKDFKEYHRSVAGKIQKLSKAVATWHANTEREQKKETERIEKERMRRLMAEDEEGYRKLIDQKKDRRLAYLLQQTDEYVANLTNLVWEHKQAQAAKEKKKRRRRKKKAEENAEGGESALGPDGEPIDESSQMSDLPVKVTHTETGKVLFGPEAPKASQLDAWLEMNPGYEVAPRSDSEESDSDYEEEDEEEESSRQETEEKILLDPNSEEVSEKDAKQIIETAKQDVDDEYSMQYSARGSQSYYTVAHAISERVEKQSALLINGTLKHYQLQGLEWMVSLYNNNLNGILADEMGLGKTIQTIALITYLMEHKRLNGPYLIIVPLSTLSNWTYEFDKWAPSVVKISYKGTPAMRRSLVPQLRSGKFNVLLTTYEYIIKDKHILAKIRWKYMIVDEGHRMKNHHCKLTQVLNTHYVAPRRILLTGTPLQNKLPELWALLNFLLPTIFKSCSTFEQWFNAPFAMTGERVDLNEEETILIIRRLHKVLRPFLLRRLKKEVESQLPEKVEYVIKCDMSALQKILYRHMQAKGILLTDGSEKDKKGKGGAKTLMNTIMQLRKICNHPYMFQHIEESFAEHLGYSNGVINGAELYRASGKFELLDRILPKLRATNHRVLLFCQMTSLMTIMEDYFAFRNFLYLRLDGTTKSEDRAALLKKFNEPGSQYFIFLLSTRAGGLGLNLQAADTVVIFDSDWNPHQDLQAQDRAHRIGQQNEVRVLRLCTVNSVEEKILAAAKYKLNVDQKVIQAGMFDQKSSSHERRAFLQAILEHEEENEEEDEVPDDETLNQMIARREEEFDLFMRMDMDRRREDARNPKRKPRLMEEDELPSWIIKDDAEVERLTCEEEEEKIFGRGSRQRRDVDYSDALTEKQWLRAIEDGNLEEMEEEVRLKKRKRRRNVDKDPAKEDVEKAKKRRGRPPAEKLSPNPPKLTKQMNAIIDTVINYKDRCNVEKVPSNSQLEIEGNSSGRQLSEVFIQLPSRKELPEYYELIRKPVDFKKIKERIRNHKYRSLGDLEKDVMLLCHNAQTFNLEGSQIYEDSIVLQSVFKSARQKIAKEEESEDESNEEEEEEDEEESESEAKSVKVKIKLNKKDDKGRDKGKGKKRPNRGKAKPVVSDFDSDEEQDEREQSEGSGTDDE
- ASSAY_DETAILS: SMARCA2 Cellular Degradation Assay (Western blot analysis on Jess platform)
- Assay type: cell-based
- RECORDED_CONDITIONS: ratio DC50 SMARCA4 / DC50 SMARCA2
Some compounds, each annotated with its measured Fold Selectivity SMARCA4/2.

Examples with answers:
INSERT INTO results (compound, measured_on, value_type, reported) VALUES
  ('COC1(C(=O)N2CC3(CN(CCC4CCN(c5ccc(C6CCC(=O)NC6=O)cc5)CC4)C3)C2)CCN(c2cnnc(-c3ccccc3O)c2)CC1 (racemic)', 'SMARCA2 (Homo sapiens, UniProt P51531)', 'Fold Selectivity SMARCA4/2', 883),
  ('Cc1ccnn1C1(C(=O)N(C)C2CCN(CCC3CCN(c4ccc([C@H]5CCC(=O)NC5=O)cc4)CC3)CC2)CCN(c2cnnc(-c3ccccc3O)c2)CC1 (racemic)', 'SMARCA2 (Homo sapiens, UniProt P51531)', 'Fold Selectivity SMARCA4/2', 1961);

Task: # input compound: O=C1CCC(c2c(F)cc(N3CCC(CN4CC[C@@H](NC(=O)C5(c6ccccc6)CCN(c6cnnc(-c7ccccc7O)c6)CC5)CC45CCC5)CC3)cc2F)C(=O)N1 (mixture of isomers) ; wanted: its Fold Selectivity SMARCA4/2
Output: 143

----------
- MEASURED_ON: SMARCA2 (Homo sapiens, UniProt P51531)
- Construct: endogenous in cells
- ASSAY_DETAILS: SMARCA2 Cellular Degradation Assay (Western blot analysis on Jess platform)
- Format: cell-based
- RECORDED_CONDITIONS: ratio DC50 SMARCA4 / DC50 SMARCA2
Some compounds, each annotated with its measured Fold Selectivity SMARCA4/2.

INSERT INTO results (compound, reported) VALUES
  ('O=C1CC[C@H](c2ccc(N3CCC(CCN4CCC(C(=O)NCC5(c6ccccc6)CCN(c6cnnc(-c7ccccc7O)c6)CC5)CC45CCOCC5)CC3)cc2)C(=O)N1 (mixture of isomers)', 1370);

Task: # input compound: CN(C(=O)C1(c2ccncc2)CCN(c2cnnc(-c3ccccc3O)c2)CC1)C1CCN(CCC2CCN(c3ccc(C4CCC(=O)NC4=O)c(F)c3)CC2)CC1 (racemic) ; wanted: its Fold Selectivity SMARCA4/2
Output: 4587

Task: # input compound: O=C1CCC(c2ccc(N3CCC(F)(CN4CC5(C4)CN(C(=O)C4(c6ccccc6)CCN(c6cnnc(-c7ccccc7O)c6)CC4)C5)CC3)nc2)C(=O)N1 (racemic) ; wanted: its Fold Selectivity SMARCA4/2
Output: 6.42

Task: # input compound: `CN(C(=O)C1(c2ccncc2)CCN(c2cnnc(-c3ccccc3O)c2)CC1)C1CCN(CCC2CCN(c3ccc([C@H]4CCC(=O)NC4=O)cc3)CC2)CC1` ; wanted: its Fold Selectivity SMARCA4/2
Output: 2641

Task: # input compound: O=C1CCC(c2ccc(N3CCC(F)(CN4CCC(NC(=O)C5(c6ccccc6)CCN(c6cnnc(-c7ccccc7O)c6)CC5)CC4)CC3)cc2)C(=O)N1 (racemic) ; wanted: its Fold Selectivity SMARCA4/2
Output: 12

----------
Some compounds, each annotated with its measured Dmax.
- MEASURED_ON: SMARCA2 (Homo sapiens)
- Construct: endogenous in cells
- ASSAY_DETAILS: SMARCA2 Cellular Degradation Assay (Western blot analysis on Jess platform)
- Type: cell-based
- RECORDED_CONDITIONS: cellular degradation
Express the result in % but write the number alone.

Examples with answers:
INSERT INTO results (compound, reported) VALUES
  ('O=C1CC[C@@H](c2ccc(N3CCC(CN4CCCC(CNC(=O)C5(c6ccccc6)CCN(c6cnnc(-c7ccccc7O)c6)CC5)C4)CC3)cc2)C(=O)N1 (some centres unmarked)', 59.3),
  ('O=C1CCC(c2ccc(N3CCC(CN4CC5(C4)CN(C(=O)C4(c6cccnc6)CCN(c6cnnc(-c7ccccc7O)c6)CC4)C5)CC3)cc2)C(=O)N1 (racemic)', 58.6);

Task: # input compound: Cn1ccc(OC2(C(=O)N3CCC4(CC3)CN(CCC3CCN(c5ccc(C6CCC(=O)NC6=O)cc5)CC3)C4)CCN(c3cnnc(-c4ccccc4O)c3)CC2)n1 (racemic) ; wanted: its Dmax
Output: 71.6

Task: # input compound: COC1(C(=O)N(C)C2CCN(C(=O)CN3CCC(c4ccc([C@@H]5CCC(=O)NC5=O)cc4)CC3)CC2)CCN(c2cnnc(-c3ccccc3O)c2)CC1 (racemic) ; wanted: its Dmax
Output: 81.4

Task: # input compound: `O=C1CC[C@@H](c2ccc(N3CCC(CN4CCC5(C4)CN(C(=O)C4(c6ccccc6)CCN(c6cnnc(-c7ccccc7O)c6)CC4)C5)CC3)cc2)C(=O)N1` ; wanted: its Dmax
Output: 75.2

----------
- MEASURED_ON: SMARCA2 (Homo sapiens, UniProt P51531)
- Construct: endogenous in cells
- ASSAY_DETAILS: SMARCA2 Cellular Degradation Assay (Western blot analysis on Jess platform)
- Format: cell-based
- RECORDED_CONDITIONS: ratio DC50 SMARCA4 / DC50 SMARCA2
Some compounds, each annotated with its measured Fold Selectivity SMARCA4/2.

Task: # input compound: `O=C1CC[C@H](c2ccc(N3CCC(CN4CC5(C4)CN(C(=O)C4(Oc6ccccc6Cl)CCN(c6cnnc(-c7ccccc7O)c6)CC4)C5)CC3)cc2)C(=O)N1` ; wanted: its Fold Selectivity SMARCA4/2
Output: 6

Task: # input compound: `COc1cccc(C2(C(=O)N(C)C3CCN(CCC4CCN(c5ccc([C@H]6CCC(=O)NC6=O)cc5)CC4)CC3)CCN(c3cnnc(-c4ccccc4O)c3)CC2)c1` ; wanted: its Fold Selectivity SMARCA4/2
Output: 37

Task: # input compound: `CCN(C(=O)C1(c2ccccc2)CCN(c2cnnc(-c3ccccc3O)c2)CC1)C1CCN(CC2CCN(c3ccc([C@H]4CCC(=O)NC4=O)cc3)CC2)CC1` ; wanted: its Fold Selectivity SMARCA4/2
Output: 8

----------
- MEASURED_ON: SMARCA2 (Homo sapiens, UniProt P51531)
- Construct: endogenous in cells
- ASSAY_DETAILS: SMARCA2 Cellular Degradation Assay (Western blot analysis on Jess platform)
- Assay type: cell-based
- RECORDED_CONDITIONS: ratio DC50 SMARCA4 / DC50 SMARCA2
Some compounds, each annotated with its measured Fold Selectivity SMARCA4/2.
Form: value (number only, do not type unit).

INSERT INTO results (compound, value_type, reported) VALUES
  ('Cc1cc(C2(C(=O)N(C)C3CCN(CCC4CCN(c5ccc(C6CCC(=O)NC6=O)c(F)c5)CC4)CC3)CCN(c3cnnc(-c4ccccc4O)c3)CC2)on1 (racemic) [Example 60]', 'Fold Selectivity SMARCA4/2', 2639);

Task: # input compound: CC(N[C@H]1CC[C@@H](NC(=O)C2(c3ccccc3)CCN(c3cnnc(-c4ccccc4O)c3)CC2)CC1)C1CCN(c2ccc([C@H]3CCC(=O)NC3=O)cn2)CC1 (mixture of isomers) [Example 147] ; wanted: its Fold Selectivity SMARCA4/2
Output: 3

Task: # input compound: O=C1CC[C@H](c2ccc(N3CCC(CN4CC5(CCN(C(=O)C6(c7ccccc7)CCN(c7cnnc(-c8ccccc8O)c7)CC6)C5)C4)CC3)cc2)C(=O)N1 [Example 16] ; wanted: its Fold Selectivity SMARCA4/2
Output: 671.32

----------
- MEASURED_ON: SMARCA2 (Homo sapiens)
- Construct: endogenous in cells
- ASSAY_DETAILS: SMARCA2 Cellular Degradation Assay (Western blot analysis on Jess platform)
- Assay type: cell-based
- RECORDED_CONDITIONS: cellular degradation
VALUE_TYPE: Dmax (%)
Express the result in % but write the number alone.

Task: # input compound: Cc1cccc(C2(C(=O)N3CC4(CN(CC5CCN(c6ccc(C7CCC(=O)NC7=O)cc6)CC5)C4)C3)CCN(c3cnnc(-c4ccccc4O)c3)CC2)c1 (racemic) [Example 43] ; wanted: its Dmax
Output: 78.5

Task: # input compound: O=C1CC[C@H](c2ccc(N3CCC(CN4CC5(CCN(C(=O)C6(c7ccccc7)CCN(c7cnnc(-c8ccccc8O)c7)CC6)C5)C4)CC3)cc2)C(=O)N1 [Example 16] ; wanted: its Dmax
Output: 82.6

Task: # input compound: O=C1CC[C@H](c2ccc(N3CCC(CCN4CCC[C@@H]4C(=O)NCC4(c5ccccc5)CCN(c5cnnc(-c6ccccc6O)c5)CC4)CC3)cc2)C(=O)N1 (racemic) [Example 107] ; wanted: its Dmax
Output: 58.8
